Measured melting point accompanies every entry in the list below.

Consider the worked cases shown below.
- compound: "COC(=O)N1CCC(Nc2ncc3ncnc(Nc4ccc(F)c(Cl)c4)c3n2)CC1"
  result: "213 to 215 °C"
- compound: "Cc1nc(C=O)c2n1-c1ccc(Cl)cc1C(c1ccccc1)=NC2"
  result: "218 to 220 °C"
- compound: "O=C1CN2Cc3cc(OCCCCCCn4ccnc4)ccc3N=C2N1"
  result: "188 to 189 °C"
- compound: "COc1cc(-n2nc(C)n(C(F)F)c2=O)c(F)cc1Cl"
  result: "86 to 88 °C"
- compound: "CCc1nc(O)c2sccc2n1"
  result: "233 to 237 °C"

Record request: melting point value, item CC1(C2CCC3C4CCC5CC=CCC5(C)C4C(O)CC32C)OCCO1 (stereo unspecified)
141 to 145 °C

====

Measured melting point accompanies every entry in the list below.

Record request: melting point value, item `CCOC(=O)c1cnoc1-c1ccc(Br)cc1`
47 to 48 °C

Record request: melting point value, item `N#CSc1cc(N)c(N)cc1Cl`
108 to 110 °C

Record request: melting point value, item `CCOC(=O)c1c(CSc2nccn2CC)nc2cc(OC)c(OC)cc2c1-c1ccc(OC)c(OC)c1`
157 to 158 °C

Record request: melting point value, item `COC(=O)c1ccc(CNC(=O)OCc2ccccc2)cc1O`
91 to 92 °C

Record request: melting point value, item `NC(=O)c1ccc(C(F)(F)F)cc1N1CCc2nc(NS(=O)(=O)c3cc(C(F)(F)F)cc(C(F)(F)F)c3)sc2C1`
225 to 228 °C

Record request: melting point value, item `NS(=O)(=O)c1ncccc1OCCF`
122 to 123 °C

====

Measured melting point accompanies every entry in the list below.

- molecule: "Cc1nc(-c2n[nH]c(Cc3ccccc3)n2)sc1C(=O)NCc1ccccc1"
  result: "235 to 237 °C"
- molecule: "CC(=O)NC[C@H]1CN(c2ccc(C3CCN(C(=O)CO)CC3)cc2)C(=O)O1"
  result: "155 to 157 °C"
- molecule: "COC(=O)c1ccc2occ(-c3ccc(SC)cc3)c2c1"
  result: "95 to 96 °C"
- molecule: "CC(C(=O)O)c1ccc2c(c1)C(=O)Cc1ccccc1S2 (stereo not given)"
  result: "130 to 132 °C"
- molecule: "OCc1ccc(-c2cccnc2)o1"
  result: "119 to 120 °C"

Record request: melting point value, item `CCCCCCN(CCC12CC3CC(CC(C3)C1)C2)C(=O)NCCCc1ccncc1`
120 to 122 °C

Record request: melting point value, item `O=c1c2cc(F)c(F)cc2n(CCF)c(=O)n1OCc1ccccc1`
145 to 147 °C

Record request: melting point value, item `COC(=O)c1nc(OC(C)=O)cc2c1[nH]c1ccccc12`
151 to 152 °C

Record request: melting point value, item `Cc1cc(NC(=O)OC(C)(C)C)c(C)c(C)c1O`
158 to 161 °C

Record request: melting point value, item `N#Cc1c2c(nn1-c1ccc(Cl)cc1F)CCCC2`
83 to 84 °C

====

Measured melting point accompanies every entry in the list below.

- compound: "O=C1CC(O)CC(/C=C/c2ccccc2-c2ccccc2)O1 (configuration not stated)"
  melting point: "89 to 91 °C"
- compound: "COc1cccc(CNc2nccc(-c3cc(N4CCN(CCCN(C)C5CCCCC5)CC4)c4cc(OC)ccc4c3)n2)c1"
  melting point: "155 to 161 °C"
- compound: "O=C1NC(=S)NC(=O)C1=Cc1cccc2ccccc12"
  melting point: "280 °C"
- compound: "CC(C)C[C@@H](C=NNC(N)=O)NC(=O)[C@H](Cc1c[nH]cn1)NC(=O)C(Cc1ccccc1)Cc1ccccc1"
  melting point: "111 to 115 °C"
- compound: "C=C(C)c1cccc(C(C)(C)N=C=O)c1"
  melting point: "60 to 62 °C"

Record request: melting point value, item `C[C@@H](O)[C@H]1C(=O)N([Si](C)(C)C(C)(C)C)[C@@H]1CC(=O)[Si](C)(C)C`
82 to 84 °C

Record request: melting point value, item `CCCc1c(OCc2cccc(OCc3ccc4ccccc4n3)c2)ccc2c(=O)cc(C(=O)OCC)oc12`
120 to 121 °C

Record request: melting point value, item `CCCn1nc2c(N)nc3ccccc3c2c1NC`
200 to 201 °C

Record request: melting point value, item `O=C(Nc1c(F)cccc1Cl)c1ccc(-n2nc(C(F)(F)F)cc2C2CC2)c(F)c1`
148 to 152 °C

Record request: melting point value, item `COc1cc2c(Nc3ccc(Cl)cc3F)ncnc2cc1OCCCNC(=O)OCC(C)C`
136 to 137 °C

====

property: melting point

Consider the worked cases shown below.
- compound: "O=C(O)c1ccc(Cn2ccn(C3CCc4ccccc4C3)c2=S)cc1 (stereo unspecified)"
  melting point: "211 to 212 °C"
- compound: "COc1cc2cc(C(=O)OC(C)(C)C)c(N)cc2cc1OCCN1CCOCC1"
  melting point: "125 to 127 °C"
- compound: "CC1Nc2ccc(-c3ccc(F)c(C#N)c3)cc2C(C)(C)O1 (stereo unspecified)"
  melting point: "184 to 186 °C"
- compound: "Cc1cc(C)n(-c2cnc(CN(C)C)c(Nc3ccc(Cl)cc3)n2)n1"
  melting point: "112 to 114 °C"

Record request: melting point value, item CC1(C)CC(n2cc(C#N)c3ccccc32)c2cc(C#N)ccc2O1 (stereo unspecified)
175 to 178 °C

Record request: melting point value, item `CN(C)CNS(=O)(=O)c1ccc(-c2cnn(Cc3ccc(F)cc3F)c(=O)c2-c2ccc(F)cc2)cc1`
193 to 195 °C

Record request: melting point value, item `Cn1ncc(C(=O)NC2CC2)c1Cl`
105 to 107 °C

Record request: melting point value, item `O=C1OCc2c1cccc2[N+](=O)[O-]`
134 to 136 °C

Record request: melting point value, item O=Cc1c(NC(Cc2ccccc2)C(=O)O)ncnc1-c1ccc(OCc2ccccc2)cc1 (stereo unspecified)
> 300 °C

Record request: melting point value, item CC(=O)OC1CCCC2=CCC3C4CCC(C(C)CCCC(C)C)C4(C)CCC3C21C (stereo unspecified)
65 to 66 °C

Record request: melting point value, item `CCCc1cc(Cl)c2occ(C)c2c1O`
49 to 50 °C

====

property: melting point

Consider the worked cases shown below.
- compound: "FC(F)c1nc2ccccc2n1-c1nc(Sc2ccccc2)nc(N2CCOCC2)n1"
  result: "245 to 248 °C"
- compound: "CCOC(=O)C(CC(=O)c1ccc(Oc2ccc(Br)cc2)cc1)SC(C)=O (stereo unspecified)"
  result: "67 to 68.5 °C"
- compound: "CC(C)(C)OC(=O)Nc1c(F)ccc2c1OC(C)(C)O2"
  result: "106 to 107 °C"
- compound: "C#Cc1cnc(OCCC)c(-c2nc3c(CC)nn(CCN4CCOCC4)c3c(=O)[nH]2)c1"
  result: "137 to 139 °C"
- compound: "CN(Cc1ccc(NC(=O)C2=Cc3cc(OCc4ccccc4Cl)ccc3S(=O)(=O)CC2)cc1)C1CCOCC1"
  result: "205 to 207 °C"
- compound: "O=C(OC1CCCC1)c1ncn2c1[C@@H]1CCCN1C(=O)c1c(Cl)cccc1-2"
  result: "210 to 212 °C"
- compound: "CCCCOC(=O)C(C#N)C(=O)c1ccc(Cl)cc1[N+](=O)[O-] (stereo unspecified)"
  result: "56 to 58 °C"
- compound: "CC(O)CN(Oc1ccccc1C1CCCCC1)C1CCCC(C2CNC(=O)N2)C1 (stereo unspecified)"
  result: "117 to 120 °C"

Record request: melting point value, item `c1ccc2[nH]c3c4ccccc4nc-3cc2c1`
249 to 251 °C

Record request: melting point value, item `CN(C)C(=O)C(C)(C)n1cc(-c2ccccc2)c(-c2ccccc2)n1`
148 to 150 °C

Record request: melting point value, item `CCOC(=O)NN=C(c1ccc(Cl)cc1)c1ccc(NS(C)(=O)=O)cc1`
198 to 200 °C

Record request: melting point value, item `Cc1ccc(C(=O)OCn2ncc(=O)[nH]c2=O)cc1`
139 °C

Record request: melting point value, item `CCOc1sc(C(=O)N2CCCC2)c2c1-c1oncc1C(C)(C)C2`
123 to 126 °C

====

Measured melting point accompanies every entry in the list below.

Consider the worked cases shown below.
- molecule: "O=C(Nc1ccc(F)cc1)NN(c1ccccc1)c1ccccc1"
  melting point: "214 °C"
- molecule: "O=C(N[C@H](Cc1ccc(F)cc1)C(=O)N1CCC(O)CC1)c1cc2ccccc2[nH]1"
  melting point: "204 to 207 °C"
- molecule: "C=CC(=O)NC(C)(C)C(=O)NCC(OC)OC"
  melting point: "80 to 82 °C"
- molecule: "CCc1c(C(=O)c2cc(Cl)cc(Cl)c2)[nH]c(=O)[nH]c1=O"
  melting point: "242 to 243 °C"
- molecule: "N#Cc1cnc2cc(Br)sc2c1Cl"
  melting point: "190 to 191 °C"

Record request: melting point value, item `CS(=O)(=O)Nc1ccc(CCN2CCc3ccc(NS(C)(=O)=O)cc3CC2)cc1`
184 to 187 °C

Record request: melting point value, item `Cc1cn(-c2cc(NC(=O)n3ccc4cc(Oc5cc(CC(N)=O)ncn5)ccc43)cc(C(F)(F)F)c2)cn1`
223 to 229 °C

Record request: melting point value, item `C=C(C)C(=O)Nc1ccc(O)c(C(=O)O)c1`
218 °C

These entries and their values trace back to a melting point compilation (Tetko et al.; mined from patent text by program, amines drawn as free bases though some values may be those of a salt).
